system: Plasmodium falciparum; assay: Inhibition of plasmodium falciparum apicoplast DNA polymerase exonuclease activity using blunt-ended double stranded oligonucleotide with 2-aminopurine at position 1 on 3' end as substrate assessed as reduction in exonuclease proofreading activity at 3'-5' direction at 100 uM relative to control
ENDPOINT: inhibition

| CHEMICAL SMILES | RESULT VALUE |
| --- | --- |
| Cc1ccc(-n2nc3c(c2NC(=O)Nc2ccc(C(C)(C)C)cc2)CSC3)cc1 | < 50% |
| Cc1ccc(-n2nc3c(c2NC(=O)c2ccc(C(C)(C)C)cc2)CSC3)cc1 | < 50% |
| CC(C)(C)c1ccc(S(=O)(=O)Nc2c3c(nn2-c2ccc(C(F)(F)F)cc2)CSC3)cc1 | > 90% |
| CC(C)(C)c1ccc(NC(=O)Nc2c3c(nn2-c2ccc(Cl)cc2)CSC3)cc1 | < 50% |
| CC(C)(C)c1ccc(S(=O)(=O)Nc2c3c(nn2-c2cccc(C(F)(F)F)c2)CSC3)cc1 | > 90% |
| CC(C)(C)c1ccc(NC(=O)Nc2c3c(nn2-c2cccc(C(F)(F)F)c2)CSC3)cc1 | < 50% |
| CC(C)(C)c1ccc(S(=O)(=O)Nc2c3c(nn2-c2ccc(Cl)cc2)CSC3)cc1 | > 90% |
